Examples of compounds with documented melting point follow.

{"columns": ["COMPOUND STRING", "MEASUREMENT"],
 "data": [
  ["N#Cc1c(N2CCC(c3cccc(C(F)(F)F)c3)CC2)ccn2c(CC(F)(F)F)cnc12", "> 300 °C"]
]}

What the record says about CCCc1cnc2c(C#N)c(N3CCC(c4cccc(C(F)(F)F)c4)CC3)ccn12 : melting point is 126.8 to 131 °C

What the record says about Cc1cc(C)nc(N2CCN(c3ccn4c(CC(F)(F)F)cnc4c3C#N)CC2)n1 : melting point is > 300 °C
